These entries and their values trace back to ChEMBL document CHEMBL2218924.

The compounds listed here are annotated with their residual activity.
TESTED_TARGET: cGMP-dependent protein kinase 1 (Homo sapiens) (UniProt Q13976)
Sequence (Q13976 whole entry): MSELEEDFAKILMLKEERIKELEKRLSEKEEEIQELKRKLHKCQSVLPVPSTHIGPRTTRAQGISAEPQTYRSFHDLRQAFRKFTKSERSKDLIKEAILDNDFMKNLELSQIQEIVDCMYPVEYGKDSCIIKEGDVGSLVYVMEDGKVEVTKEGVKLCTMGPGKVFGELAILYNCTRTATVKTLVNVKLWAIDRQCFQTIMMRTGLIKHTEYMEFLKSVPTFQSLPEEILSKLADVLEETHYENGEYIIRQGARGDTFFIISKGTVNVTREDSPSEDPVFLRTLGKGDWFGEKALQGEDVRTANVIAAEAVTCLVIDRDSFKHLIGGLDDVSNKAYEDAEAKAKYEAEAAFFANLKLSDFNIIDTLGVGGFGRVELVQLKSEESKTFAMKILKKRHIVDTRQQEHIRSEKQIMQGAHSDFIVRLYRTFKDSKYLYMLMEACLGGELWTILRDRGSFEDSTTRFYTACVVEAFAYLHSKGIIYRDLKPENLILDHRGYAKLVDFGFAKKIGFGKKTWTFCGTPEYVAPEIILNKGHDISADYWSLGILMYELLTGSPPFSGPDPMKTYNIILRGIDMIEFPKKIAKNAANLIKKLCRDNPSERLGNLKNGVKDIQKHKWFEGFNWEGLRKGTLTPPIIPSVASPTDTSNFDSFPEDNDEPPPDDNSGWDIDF
EXPERIMENTAL_CONDITIONS: at 10 µM
Provide a numeric answer, followed by its unit.

Solved cases (4 shown):
| SMILES_INPUT | OBSERVATION_TYPE | RESULT |
| --- | --- | --- |
| c1ccc(-c2n[nH]c3c2oc2ccccc23)cc1 | residual activity | 100% |
| N#C/C(=C(\N)Sc1ccc(N)cc1)c1ccccc1C(F)(F)F | residual activity | 95% |
| CO[C@@H]1[C@H](N(C)C(=O)c2ccccc2)C[C@H]2O[C@]1(C)n1c3ccccc3c3c4c(c5c6ccccc6n2c5c31)C(=O)NC4 | residual activity | 4% |
| O=C1Nc2ccc(Br)cc2/C1=C\c1cc2c([nH]1)CCCC2 | residual activity | 99% |

Supply measured residual activity of Cc1nc(-c2ccccc2)c(-c2ccncc2)o1 in your reply.
80%

Determine its reported residual activity: CCC(=O)Nc1ccc2ncnc(Nc3cccc(Br)c3)c2c1
96%

Give the measured residual activity for COc1ccc(CNc2nc(N(CCO)CCO)nc3c2ncn3C(C)C)cc1
101%

----------
TESTED_TARGET: Tyrosine-protein kinase Blk (Homo sapiens)
EXPERIMENTAL_CONDITIONS: at 1 µM
OBSERVATION_TYPE: residual activity

Answered cases to consult:
| COMPOUND | TESTED_TARGET | OBSERVATION_TYPE | RESULT |
| --- | --- | --- | --- |
| Oc1ccc(Nc2nc(-c3ccc(Cl)cc3)cs2)cc1 | Tyrosine-protein kinase Blk (Homo sapiens) | residual activity | 111% |
| CO[C@H]1[C@@H](OC)C[C@H](C)[C@@H](OC)C2=CC(=O)C=C(NC(=O)/C(C)=C/C=C/[C@H](OC)[C@@H](OC(N)=O)/C(C)=C/[C@@H]1C)C2=O | Tyrosine-protein kinase Blk (Homo sapiens) | residual activity | 90% |

Answer with the recorded residual activity for the compound listed here: CCN(CC)CCCCN1c2ccccc2Oc2ccc(Cl)cc21
110%

----------
Each item that follows carries a reported residual activity.
TESTED_TARGET: Calcium/calmodulin-dependent protein kinase type II subunit beta (Homo sapiens) (UniProt Q13554)
Sequence (Q13554 whole entry): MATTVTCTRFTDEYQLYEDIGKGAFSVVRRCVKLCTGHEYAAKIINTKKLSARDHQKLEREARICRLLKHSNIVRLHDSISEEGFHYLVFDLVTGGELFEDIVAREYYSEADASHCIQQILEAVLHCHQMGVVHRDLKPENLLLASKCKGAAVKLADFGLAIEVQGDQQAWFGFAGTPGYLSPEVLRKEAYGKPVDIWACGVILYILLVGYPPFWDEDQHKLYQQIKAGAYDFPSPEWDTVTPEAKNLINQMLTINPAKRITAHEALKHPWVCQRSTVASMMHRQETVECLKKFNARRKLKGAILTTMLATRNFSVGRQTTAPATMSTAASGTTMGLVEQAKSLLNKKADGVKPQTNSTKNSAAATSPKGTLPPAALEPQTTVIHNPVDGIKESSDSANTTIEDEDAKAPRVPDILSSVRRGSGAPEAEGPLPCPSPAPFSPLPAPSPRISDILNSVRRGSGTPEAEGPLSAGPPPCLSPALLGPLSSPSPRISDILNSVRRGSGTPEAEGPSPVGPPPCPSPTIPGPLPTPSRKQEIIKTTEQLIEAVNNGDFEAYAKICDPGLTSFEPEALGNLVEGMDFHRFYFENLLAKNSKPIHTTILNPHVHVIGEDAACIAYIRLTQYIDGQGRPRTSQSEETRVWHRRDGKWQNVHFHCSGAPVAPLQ
EXPERIMENTAL_CONDITIONS: at 1 µM
Write it as a number; the unit % goes unstated.

Example cases with answers are listed next.
| SMILES_INPUT | QUANTITATIVE_RESULT |
| --- | --- |
| COc1ccc(OC)c2c(=S)c3ccccc3[nH]c12 | 92 |
| Oc1ccc(Nc2nc(-c3ccc(Cl)cc3)cs2)cc1 | 98 |
| Nc1n[nH]c2nnc(-c3c(-c4ccccc4)nn4ccccc34)cc12 | 93 |
| COc1cccc(-c2cc(=O)c3ccccc3o2)c1N | 92 |
| CC[n+]1c(/C=C/N(C)c2ccccc2)n(-c2ccccc2)c2ccc(-c3nc4ccccc4s3)cc21 | 93 |

Shift focus to the following entry.
Give recorded residual activity. COc1cc2ncnc(Nc3ccc(O)c(Br)c3)c2cc1OC
73

----------
TESTED_TARGET: Calcium/calmodulin-dependent protein kinase type II subunit delta (Homo sapiens) (UniProt Q13557)
Sequence (Q13557 whole entry): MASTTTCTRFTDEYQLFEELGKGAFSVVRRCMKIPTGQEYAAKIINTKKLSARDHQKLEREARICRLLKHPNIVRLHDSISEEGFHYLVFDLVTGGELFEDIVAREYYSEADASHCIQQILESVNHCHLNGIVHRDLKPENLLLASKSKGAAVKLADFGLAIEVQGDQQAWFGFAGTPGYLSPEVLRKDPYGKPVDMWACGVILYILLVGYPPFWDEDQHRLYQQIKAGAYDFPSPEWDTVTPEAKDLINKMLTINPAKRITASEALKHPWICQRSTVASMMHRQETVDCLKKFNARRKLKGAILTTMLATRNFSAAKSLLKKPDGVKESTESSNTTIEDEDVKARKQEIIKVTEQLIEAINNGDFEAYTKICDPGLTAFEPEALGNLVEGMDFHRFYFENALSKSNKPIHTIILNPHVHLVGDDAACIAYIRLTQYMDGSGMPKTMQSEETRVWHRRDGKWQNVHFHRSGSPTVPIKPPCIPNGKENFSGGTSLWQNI
EXPERIMENTAL_CONDITIONS: at 10 µM
OBSERVATION_TYPE: residual activity (%)
// note: answer is a bare numeric in %

| SMILES_INPUT | SCALE_UNIT | residual activity |
| --- | --- | --- |
| COc1cc2ncc(-c3ccccc3)nc2cc1OC | % | 80 |

Specify residual activity for O=c1c2ccccc2[nH]c(=S)n1CCN1CCC(=C(c2ccc(F)cc2)c2ccc(F)cc2)CC1 and stop.
91

Return the recorded residual activity value; entry: COc1cc2ncnc(Nc3ccc(Oc4ccccc4)cc3)c2cc1OC
111

Supply recorded residual activity for CN(C)c1ccc(/C=C2\C(=O)Nc3ccccc32)cc1 here.
35

Please indicate residual activity recorded for CC(=O)c1ccc(N2CCOCC2)cc1O
86

Please give measured residual activity of the following entry: N#C/C(=C(\N)Sc1ccc(N)cc1)c1ccccc1C(F)(F)F
47
